# Test system: NCI-H226 lung
# test.protocol: NCI-60 one-dose screen, 48 h (100 = growth as untreated, 0 = no growth, -100 = all killed)
# assay.context: 10 µM unless noted
About 83,000 compounds went through this panel and 20% of them were active in at least one assay; those are over-represented in the sample as a whole.
Could you please report measured growth for the items listed next?
Answers are plain numbers, in %.

* CCn1c2ccccc2c2ccc(C(C)=O)cc21 | 91.8
* Clc1ccc(-c2nc(-c3cccs3)no2)c(Cl)c1 | 88.7
* Cc1nn(-c2ccccc2)c2nc(Cl)c(/C=C/C(=O)c3ccccc3)c(-c3ccccc3)c12 | 89.7

Now examine the next entry.
Just so you know, measured growth for CCOC(=O)c1c2c(c(C)n1Cc1ccc(OC)cc1)-c1nc(N)ncc1CC2 came out at 92.2

###

# Tested on: LOX IMVI melanoma
# test.protocol: NCI-60 one-dose screen, 48 h (100 = growth as untreated, 0 = no growth, -100 = all killed)
# assay.context: 10 µM unless noted
This is part of a sample that, as a whole, favours compounds with a hit. Of some 83,000 tested, about 20% had one in any assay.
Could you please report measured growth for the items listed next?
Numbers only, in %.

* CCCCCCCC/C=C\CCCCCCCCOc1ccccc1CC(=O)NCC[N+]1(C)CCCC1 | 72
* Cc1scc2c1N(C(=O)CN1CCN(C)CC1)c1ccccc1NC2=O | 99.7
* CO[C@H]1/C=C/O[C@@]2(C)Oc3c(C)c(O)c4c(O)c(c(/C=N/N5CCN(C)CC5)c(O)c4c3C2=O)NC(=O)/C(C)=C\C=C\C(C)[C@H](O)[C@@H](C)[C@@H](O)[C@@H](C)[C@@H](OC(C)=O)[C@@H]1C (stereo partly specified) | 93.8
* COC(=O)C[C@@H]1CC=CC(=O)/C1=C(O)/C=C/c1ccccc1 | -93.3
* CCS(=O)(=O)OCCCl | 98.5

Required: growth, one value per molecule below.
1. CN(C)c1ccc(/C=C(\C#N)c2nc3ccccc3c(=O)[nH]2)cc1
2. CN1CCN(Cc2ccc(NC(=O)c3[nH]ncc3Nc3ccnc4ccnn34)cc2)CC1
3. CC(c1cc(Cl)ccc1O)c1cc(Cl)ccc1O
4. O=C1C(Cl)=C(N=Nc2c(Cl)c(O)c3ccccc3c2O)C(=O)c2ccccc21
5. CCC(C)CC(C)C(=O)c1c(O)ccn(O)c1=O (stereo unspecified)
6. Cn1c(=O)c2c(nc(Br)n2CCC(=O)Nc2ccc(F)cc2)n(C)c1=O
7. CN1CCCC1c1cccnc1 (stereo unspecified)

1: 83.8; 2: 24.1; 3: 30.1; 4: 43; 5: 6.78; 6: 89.9; 7: 100

###

# Tested on: NCI/ADR-RES ovarian
# test.protocol: NCI-60 one-dose screen, 48 h
# assay.context: 10 µM unless noted
# Protocol: Growth inhibition of the NCI/ADR-RES human […] tumor cell line is measured as a screen for anti-cancer activity. Cells are grown in 96 well plates and exposed to the test compound for 48 hours. Compounds are tested at a single concentration, which is 10^-5 M for most compounds. The reported endpoint is percent growth (GI% or GIPRCNT), where numbers from 0 - 100% represent growth inhibition, and numbers from -100% - 0 represent cell death. For example, a value of 40 represents 60% growth inhibition. […]
Compounds without any hit were thinned out: in the full panel of roughly 83,000, 20% have a hit. Calls of active or inactive are those of the source. Rule for the calls: active = growth percent below 10; inactive = the rest.
Outcome (select one): 1 = active, -1 = inactive

Answered cases to consult:
* COc1ccc2c(c1)C(=O)/C(=C/c1ccc([N+](=O)[O-])s1)O2 | -1
* Nc1ccc(S(=O)(=O)Nc2ncccn2)cc1 | -1
* C[n+]1c2ccccc2c(NC2CCNCC2)c2[nH]c3ccccc3c21 | -1
* COc1cc(OC)c2sc(-c3ccc(-n4cncc4-c4ccc(N)cc4)cc3)nc2c1 | -1
* CN(C)c1ccc2[nH]c3c(C(N)=O)cc(=O)c(=O)c=3oc2c1 | -1
* CC(C)c1ccc(C(=O)Nc2sc3c(CN(C)C)c(O)ccc3c2C(N)=O)cc1 | -1
* O=C(OCCBr)c1ccc(Cl)c([N+](=O)[O-])c1 | -1
* CC(c1cc(Cl)ccc1O)c1cc(Cl)ccc1O | 1

Could you now consider this next molecule?
Lab log entry: Cc1ccccc1NC(=O)c1cc2ccccc2cc1O — outcome as called in the assay?
-1

###

Could you please report measured growth for the items listed next?
# System: COLO 205 colon
# test.protocol: NCI-60 one-dose screen, 48 h (100 = growth as untreated, 0 = no growth, -100 = all killed)
# assay.context: 10 µM unless noted
Compounds without any hit were thinned out: in the full panel of roughly 83,000, 20% have a hit.
Numbers only, in %.

// solved cases for growth follow
* Cc1cc(C(=O)O)c(C)cc1C(=O)O | 120
* Cc1cc([N+](=O)[O-])c(C)cc1C(=O)O | 108
* O=C(C=C=Nc1ccccc1)C(=O)N=C=Cc1ccccc1 | 13.5

Required: growth, one value per molecule below.
1. Nc1cc(Cl)c(S(N)(=O)=O)cc1S(N)(=O)=O
2. C=CC1=C(C(=O)O)N2C(=O)[C@@H](NC(=O)/C(=N\O)c3csc(N)n3)[C@H]2SC1 (stereo in doubt)
3. COc1ccc(-c2cc(Cc3cccs3)c(=O)n(Cn3ccc4ccccc43)n2)cc1
4. C[N+]1(CCC[N+]2(C)C[C@@H]3[C@H](C2)[C@@H]2C=C[C@H]3C2)CCOCC1 (some centres undefined)
5. CCCCCCCC/C=C\CCCCCCCCOc1ccccc1CC(=O)NCC[N+]1(C)CCCC1
6. COc1ccc(-c2c(-c3cc(OC)c(OC)c(OC)c3)noc2N)cc1

1. 109
2. 103
3. 110
4. 104
5. 43.1
6. -72

###

# System: A549/ATCC NSCLC
# test.protocol: NCI-60 one-dose screen, 48 h (100 = growth as untreated, 0 = no growth, -100 = all killed)
# assay.context: 10 µM unless noted
Compounds without any hit were thinned out: in the full panel of roughly 83,000, 20% have a hit.
Could you please report measured growth for the items listed next?
One number for each entry, in %.

• O=C(NCCc1ccccc1)C1CCC(=O)N1Cc1ccc(Br)cc1 (stereo not given) = 79.1
• Cc1c(N(C)CS(=O)(=O)O)c(=O)n(-c2ccccc2)n1C = 97.1
• Cc1cc([N+](=O)[O-])c(C)cc1C(=O)O = 108
• CC(=O)O[C@H]1C(=O)[C@@]2(C)C([C@H](OC(=O)c3ccccc3)[C@]3(O)C[C@H](OC(=O)[C@H](O)[C@@H](NC(=O)c4ccccc4)c4ccccc4)C(C)=C1C3(C)C)[C@]1(OC(C)=O)CO[C@@H]1C[C@@H]2O (stereo not given in full) = 13.1

Now examine the next entry.
Just so you know, measured growth for CCN1CCN(c2cc(-c3cn[nH]c3-c3cc(C)cc(OC)c3)nc(-c3cccnc3)n2)CC1 came out at 82.3

###

# Test system: EKVX NSCLC
# test.protocol: NCI-60 one-dose screen, 48 h (100 = growth as untreated, 0 = no growth, -100 = all killed)
# assay.context: 10 µM unless noted
Compounds without any hit were thinned out: in the full panel of roughly 83,000, 20% have a hit.
So basically, if growth comes in under 80% it's Condition met, and if it's 80% or more it's Condition not met.

Answered cases to consult:
- COc1ccc(-c2c3c(nn2-c2ccc(N)cc2)CCc2cnoc2-3)cc1OC: Condition not met
- COc1ccc2c(c1)nc(N)c1c3cc(OC)c(OC)cc3cn21: Condition met

Input COc1cc(C2NC(c3ccc(Cl)cc3)C(C)C(=NC(=O)c3cnccn3)C2C)cc(OC)c1OC (stereo not drawn) ; condition: growth strictly below 80%. Does it hold?
Condition not met

Input CCC1=C(c2ccc(OC)cc2)C(C)(C)Oc2c1ccc(O)c2CN1CCCC1 ; condition: growth strictly below 80%. Does it hold?
Condition not met

Input O=C(Nc1ccc(Cl)cc1Cl)Nc1ccc(-c2cccnc2)cc1N1CCC(CO)CC1 ; condition: growth strictly below 80%. Does it hold?
Condition met

Input c1ccc2cc(C[n+]3ccn(CCCCCCCn4cc[n+](Cc5ccc6ccccc6c5)c4)c3)ccc2c1 ; condition: growth strictly below 80%. Does it hold?
Condition met

Input O=C(/C=C/c1cc2ccccc2[nH]c1=O)c1ccc(Cl)cc1 ; condition: growth strictly below 80%. Does it hold?
Condition met

Input O=C1NCC(Nc2ccc(Br)cc2Cl)C(=O)N1 (stereo not drawn) ; condition: growth strictly below 80%. Does it hold?
Condition not met

Input CCC[C@H](N[C@@H](C)C(=O)N1[C@H](C(=O)O)C[C@@H]2CCCC[C@@H]21)C(=O)OCC ; condition: growth strictly below 80%. Does it hold?
Condition not met

Input CN(C)c1nc(-c2ccco2)n2nc(-c3ccco3)cc2n1 ; condition: growth strictly below 80%. Does it hold?
Condition met

Input Nc1nc2ncc(CCNc3ccc(C(=O)NC(CCC(=O)O)C(=O)O)cc3)nc2c(=O)[nH]1 (stereo not drawn) ; condition: growth strictly below 80%. Does it hold?
Condition not met
